Target: NAPE-PLD activity of HepG2 cells (Homo sapiens, UniProt Q6IQ20)
Construct: endogenous in cells; host or cells: HepG2
Sequence (Q6IQ20 whole entry): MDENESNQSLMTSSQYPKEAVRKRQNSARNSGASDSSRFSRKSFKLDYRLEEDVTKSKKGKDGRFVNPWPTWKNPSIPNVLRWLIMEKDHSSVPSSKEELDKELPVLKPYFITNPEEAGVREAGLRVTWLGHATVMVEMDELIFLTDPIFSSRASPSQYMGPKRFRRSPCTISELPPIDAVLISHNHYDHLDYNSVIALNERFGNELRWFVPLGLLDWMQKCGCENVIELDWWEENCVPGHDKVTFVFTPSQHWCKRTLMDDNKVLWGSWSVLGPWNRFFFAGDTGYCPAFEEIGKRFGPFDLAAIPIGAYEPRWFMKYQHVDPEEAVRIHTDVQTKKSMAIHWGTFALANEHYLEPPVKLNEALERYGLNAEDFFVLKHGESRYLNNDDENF
Test: Cell-based NAPE-PLD activity in HepG2 cells (flame-NAPE)
Conditions: Table 3; 10 μM
Property: In-cell NAPE-PLD activity in HepG2 (10 μM) with PED-A1 or flame-NAPE as substrate; scope: individual compounds
Express it in %; write the number only.

Reference set, count: 5
Compound | Measurement
Cc1cccc2sc(NC(=O)C3CCN(S(=O)(=O)c4cnn(C)c4)CC3)nc12 [VU210] | 124
O=C(Nc1nc2ccccc2s1)C1CCN(S(=O)(=O)c2ccc(F)c(Cl)c2)CC1 [VU233] | 130
Cc1cc(C)c2sc(NC(=O)C3CCN(S(=O)(=O)c4ccc(F)cc4)CC3)nc2c1 [VU534] | 211
Cc1cccc2sc(NC(=O)C3CCN(S(=O)(=O)c4cccnc4)CC3)nc12 [VU211] | 148
O=C(Nc1nc2ccccc2s1)C1CCN(S(=O)(=O)c2cccnc2)CC1 [VU203] | 122

Dear colleague, I am looking for the recorded In-cell NAPE-PLD activity in HepG2 (10 μM) with PED-A1 or flame-NAPE as substrate of the following compound: Cn1cc(S(=O)(=O)N2CCC(C(=O)Nc3nc4ccccc4s3)CC2)cn1 [VU227] 125

Dear colleague, I am looking for the recorded In-cell NAPE-PLD activity in HepG2 (10 μM) with PED-A1 or flame-NAPE as substrate of the following compound: Cc1cccc2sc(NC(=O)C3CCN(S(=O)(=O)c4ccc(F)c(Cl)c4)CC3)nc12 [VU209] 206

====

Molecular target: recombinant mouse NAPE-PLD (Mus musculus, UniProt Q8BH82)
Construct: hexahistidine (His6) (C); made in house; host or cells: E. coli
Assay: In vitro fluorescence NAPE-PLD activity assay (HTS/CRC) with recombinant mouse NAPE-PLD and PED-A1
Type: biochemical
Conditions: Table 3; read-out: In vitro Emax (100% activity is baseline activity of vehicle only)
Rule: Emax under 200% gives false, otherwise true.

Molecule | Group label
Cc1cccc2sc(NC(=O)C3CCN(S(=O)(=O)c4cnn(C)c4)CC3)nc12 [VU210] | true
COc1ccc(S(=O)(=O)N2CCC(C(=O)Nc3nc4ccc(C)cc4s3)CC2)cc1 [VU601] | false
Cc1ccc2nc(NC(=O)C3CCN(S(=O)(=O)c4ccc(F)cc4)CC3)sc2c1 [VU486] | false

Query molecule follows.
Kindly determine if Emax recorded for COc1cccc2sc(NC(=O)C3CCN(S(=O)(=O)c4ccc(F)cc4)CC3)nc12 [VU485] is above or exactly 200%. true

====

Target: Fatty Acid Amide Hydrolase (FAAH) (Homo sapiens)
Construct: purchased Cayman Chemicals
Sequence (O00519 whole entry): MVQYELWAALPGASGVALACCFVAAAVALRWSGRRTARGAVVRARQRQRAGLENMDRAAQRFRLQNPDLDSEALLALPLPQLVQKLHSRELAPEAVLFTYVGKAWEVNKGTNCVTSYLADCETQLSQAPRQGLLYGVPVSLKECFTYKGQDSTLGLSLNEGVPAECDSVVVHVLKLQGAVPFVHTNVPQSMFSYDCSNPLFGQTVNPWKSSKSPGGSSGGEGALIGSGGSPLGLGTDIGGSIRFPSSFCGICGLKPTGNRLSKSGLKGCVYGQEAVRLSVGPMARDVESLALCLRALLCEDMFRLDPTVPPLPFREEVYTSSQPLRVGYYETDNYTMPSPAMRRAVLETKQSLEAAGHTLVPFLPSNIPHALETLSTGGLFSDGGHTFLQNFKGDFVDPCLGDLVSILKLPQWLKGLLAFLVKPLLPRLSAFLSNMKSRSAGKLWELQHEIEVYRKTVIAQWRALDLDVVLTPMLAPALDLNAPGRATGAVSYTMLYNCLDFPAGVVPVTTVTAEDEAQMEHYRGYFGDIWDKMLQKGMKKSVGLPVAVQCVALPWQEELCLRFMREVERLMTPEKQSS
Experiment: FAAH activity assay (Cayman Chemicals)
Assay type: biochemical
Conditions: 33 μM compound, compared to vehicle (0%)
Property name: inhibition at 33 µM

Molecule | inhibition at 33 µM
Cc1cc2nc(NC(=O)C3CCN(S(=O)(=O)c4ccc(F)cc4)CC3)sc2cc1C | 25%
Cc1ccc(S(=O)(=O)N2CCC(C(=O)Nc3nc4c(C)cc(C)cc4s3)CC2)cc1 | < 15%
Cc1cccc2sc(NC(=O)C3CCN(S(=O)(=O)c4cnn(C)c4)CC3)nc12 [MRJ-058D] | < 15%
Cc1cccc2sc(NC(=O)C3CCN(S(=O)(=O)c4cccnc4)CC3)nc12 [MRJ-058C] | < 15%

Dear colleague, I am looking for the recorded inhibition at 33 µM of the following molecule: Cc1ccc2sc(NC(=O)C3CCN(S(=O)(=O)c4ccc(F)cc4)CC3)nc2c1C < 15%

====

Target: recombinant mouse NAPE-PLD (Mus musculus, UniProt Q8BH82)
Construct: hexahistidine (His6) (C); made in house; host or cells: E. coli
Sequence (Q8BH82 1-396): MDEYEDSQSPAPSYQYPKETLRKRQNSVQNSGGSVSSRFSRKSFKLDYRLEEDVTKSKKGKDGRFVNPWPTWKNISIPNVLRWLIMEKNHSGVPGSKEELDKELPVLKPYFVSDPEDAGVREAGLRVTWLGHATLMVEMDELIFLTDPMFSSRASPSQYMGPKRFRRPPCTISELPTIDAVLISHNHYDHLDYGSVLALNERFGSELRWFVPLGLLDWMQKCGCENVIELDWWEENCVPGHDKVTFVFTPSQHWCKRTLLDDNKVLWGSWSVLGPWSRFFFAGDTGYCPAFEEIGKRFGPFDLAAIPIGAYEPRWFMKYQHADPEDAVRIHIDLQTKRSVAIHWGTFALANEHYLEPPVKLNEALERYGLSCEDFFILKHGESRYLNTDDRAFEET
Test: In vitro fluorescence NAPE-PLD activity assay (HTS/CRC) with recombinant mouse NAPE-PLD and PED-A1
Format: biochemical
Conditions: Table 2; maximal induced activity for recombinant NAPE-PLD compared to basal (100%); read-out: Emax (%)
Property name: Emax (%)
Express it in %; write the number only.

Reference set, count: 5
Compound | Target or test system | Unit descriptor | Emax
O=C(Nc1nc2ccccc2s1)C1CCN(S(=O)(=O)c2ccc(F)cc2)CC1 [VU488] | recombinant mouse NAPE-PLD (Mus musculus, UniProt Q8BH82) | % | 135
Cc1cccc2sc(NC(=O)C3CCN(S(=O)(=O)c4ccc(F)c(Cl)c4)CC3)nc12 [MRJ-058B] | recombinant mouse NAPE-PLD (Mus musculus, UniProt Q8BH82) | % | 180
Cc1ccc(S(=O)(=O)N2CCC(C(=O)Nc3nc4c(C)cc(C)cc4s3)CC2)cc1 [VU575] | recombinant mouse NAPE-PLD (Mus musculus, UniProt Q8BH82) | % | 220
Cc1cccc2sc(NC(=O)C3CCN(S(=O)(=O)c4cnn(C)c4)CC3)nc12 [MRJ-058D] | recombinant mouse NAPE-PLD (Mus musculus, UniProt Q8BH82) | % | 240
Cc1cc(F)ccc1S(=O)(=O)N1CCC(C(=O)Nc2nc3c(C)cccc3s2)CC1 [MRJ-058A] | recombinant mouse NAPE-PLD (Mus musculus, UniProt Q8BH82) | % | 150

Dear colleague, I am looking for the recorded Emax of the following compound: Cc1ccc2sc(NC(=O)C3CCN(S(=O)(=O)c4ccc(F)cc4)CC3)nc2c1C [VU517] 210

Dear colleague, I am looking for the recorded Emax of the following compound: Cc1ccc2nc(NC(=O)C3CCN(S(=O)(=O)c4ccc(Cl)cc4)CC3)sc2c1 [VU539] 170

Dear colleague, I am looking for the recorded Emax of the following compound: Cc1cc2nc(NC(=O)C3CCN(S(=O)(=O)c4ccc(F)cc4)CC3)sc2cc1C [VU536] 225

Dear colleague, I am looking for the recorded Emax of the following compound: Cc1cccc2sc(NC(=O)C3CCN(S(=O)(=O)c4cccnc4)CC3)nc12 [MRJ-058C] 175

Dear colleague, I am looking for the recorded Emax of the following compound: Cc1cc(C)c2sc(NC(=O)C3CCN(S(=O)(=O)c4ccc(F)cc4)CC3)nc2c1 [VU534] 205

Dear colleague, I am looking for the recorded Emax of the following compound: Cc1ccc2nc(NC(=O)C3CCN(S(=O)(=O)c4ccc(F)cc4)CC3)sc2c1 [VU486] 190

====

Target: soluble epoxide hydrolase (sEH) (Homo sapiens, UniProt P34913)
Construct: purchased Cayman Chemicals
Sequence (P34913 whole entry): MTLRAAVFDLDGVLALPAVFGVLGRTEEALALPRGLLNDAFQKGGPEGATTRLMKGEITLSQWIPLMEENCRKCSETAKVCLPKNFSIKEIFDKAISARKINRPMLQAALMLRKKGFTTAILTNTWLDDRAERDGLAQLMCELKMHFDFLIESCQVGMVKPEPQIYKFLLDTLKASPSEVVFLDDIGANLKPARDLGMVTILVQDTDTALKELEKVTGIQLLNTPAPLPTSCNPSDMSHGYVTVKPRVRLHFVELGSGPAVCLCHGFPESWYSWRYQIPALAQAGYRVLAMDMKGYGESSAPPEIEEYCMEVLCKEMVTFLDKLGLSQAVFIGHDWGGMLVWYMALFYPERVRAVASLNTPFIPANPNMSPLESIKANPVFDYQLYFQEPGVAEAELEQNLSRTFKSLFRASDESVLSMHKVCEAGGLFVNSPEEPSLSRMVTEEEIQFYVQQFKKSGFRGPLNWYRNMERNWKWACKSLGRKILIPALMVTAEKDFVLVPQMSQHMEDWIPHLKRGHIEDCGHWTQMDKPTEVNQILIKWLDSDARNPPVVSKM
Experiment: sEH activity assay (Cayman Chemicals)
Format: biochemical
Conditions: Table 3; 33 μM
For each record, check the reported Remaining sEH Activity (33 μM): if it is below 60% write 1.0, else write 0.0.

Some entries whose results are on file:
Molecule | Group label
Cc1cc2nc(NC(=O)C3CCN(S(=O)(=O)c4ccc(F)cc4)CC3)sc2cc1C [VU536] | 1.0
Cc1ccc2sc(NC(=O)C3CCN(S(=O)(=O)c4ccc(F)cc4)CC3)nc2c1C [VU517] | 1.0
Cc1cccc2sc(NC(=O)C3CCN(S(=O)(=O)c4cnn(C)c4)CC3)nc12 [VU210] | 0.0
O=C(Nc1nc2ccccc2s1)C1CCN(S(=O)(=O)c2ccc(F)c(Cl)c2)CC1 [VU233] | 0.0

Bench note: check whether Cc1cccc2sc(NC(=O)C3CCN(S(=O)(=O)c4ccc(F)c(Cl)c4)CC3)nc12 [VU209] shows Remaining sEH Activity (33 μM) below 60% 0.0

Bench note: check whether Cc1cccc2sc(NC(=O)C3CCN(S(=O)(=O)c4cccnc4)CC3)nc12 [VU211] shows Remaining sEH Activity (33 μM) below 60% 1.0

Bench note: check whether Cc1ccc(S(=O)(=O)N2CCC(C(=O)Nc3nc4c(C)cc(C)cc4s3)CC2)cc1 [VU575] shows Remaining sEH Activity (33 μM) below 60% 1.0

Bench note: check whether Cn1cc(S(=O)(=O)N2CCC(C(=O)Nc3nc4ccccc4s3)CC2)cn1 [VU227] shows Remaining sEH Activity (33 μM) below 60% 0.0

Bench note: check whether Cc1cc(C)c2sc(NC(=O)C3CCN(S(=O)(=O)c4ccc(F)cc4)CC3)nc2c1 [VU534] shows Remaining sEH Activity (33 μM) below 60% 1.0
